The compounds listed here are annotated with their CC50 at 7 days.
# measurement description: In vitro cytotoxicity assay (MTT cell viability) in HepG2 cells
# Assay type: cell-based, human
# condition context: human

These recorded examples may help you get a feel for the data.
Cc1c(C(=O)Nc2ccc(F)c(F)c2)c2n(c1C(=O)C(=O)N[C@H]1C[C@H](O)C1)CCCC2 [Example 456]    > 30 µM
Cc1cc(NC(=O)c2c(C)c(C(=O)C(=O)N3CCC(O)CC3)n(C)c2C)ccc1F [Example 47]    0.5 to 4.99 µM
Cc1cc(NC(=O)c2c(C)c(C(=O)C(=O)N[C@H](C(=O)O)[C@@H](C)O)n(C)c2C)ccc1F [Example 34]    > 30 µM
Cc1cc(NC(=O)c2c(C)c(C(=O)C(=O)N[C@]3(C)CC[C@H](O)CC3)n(C)c2C)ccc1F [Example 228]    > 30 µM
Cc1cc(NC(=O)c2c(Cl)c(C(=O)C(=O)NCC(C)(C)CO)n3c2CCCC3)cnc1F [Example 525]    > 30 µM
Cc1cc(NC(=O)c2c(C)c(C(=O)C(=O)NC3(c4noc(C(F)F)n4)CCC3)n(C)c2C)cnc1F [Example 159]    > 30 µM

Record request: CC50 at 7 days value, item Cc1cc(NC(=O)c2c(C)c(C(=O)C(=O)NC3CCOCC3(C)C)n(C)c2C)ccc1F (stereo not shown) [Example 281] 5 to 30 µM

// data source = patent US20190375708A1
